Target: Guanine nucleotide-binding protein G(i) subunit alpha-3 (Homo sapiens)
Sequence (P08754 whole entry): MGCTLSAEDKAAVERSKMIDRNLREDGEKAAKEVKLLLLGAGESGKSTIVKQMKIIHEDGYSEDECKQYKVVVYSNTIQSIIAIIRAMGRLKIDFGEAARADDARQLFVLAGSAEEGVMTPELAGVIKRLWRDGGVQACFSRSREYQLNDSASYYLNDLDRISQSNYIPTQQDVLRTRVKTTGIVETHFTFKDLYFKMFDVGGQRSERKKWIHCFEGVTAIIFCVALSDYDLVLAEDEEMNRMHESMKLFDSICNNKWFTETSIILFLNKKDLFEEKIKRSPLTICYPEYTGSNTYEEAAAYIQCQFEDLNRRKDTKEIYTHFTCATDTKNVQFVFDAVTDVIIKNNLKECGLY
Experiment: Concentration required to stimulate binding of [35S]GTP-gamma-S, with G alpha i3
Property measured: EC50 (µM)

Known results for compounds:
- Compound: "CCCCCCCCCCCCC(=O)N1CCC(C2CCNCC2)CC1"
  EC50 / µM: 12.1
- Compound: "CCCCCCCCCCCCCCCNC(=O)C1CCNCC1"
  EC50 / µM: 5.9
- Compound: "CCCCCCCCCCCCCN1CCC(C2CCN(C)CC2)CC1"
  EC50 / µM: 18.9
- Compound: "CCCCCCCCCCCCCCCN1CCC(N)CC1"
  EC50 / µM: 27.6
- Compound: "CCCCCCCCCCCCCCCNC(=O)C1CCN(CCNC=O)CC1"
  EC50 / µM: 9.3

a = CCCCCCCCCCCCCCCNC(=O)C1CCN(CCN)CC1
b = CCCCCCCCCCCCCCCN1CCC(CCC2CCNCC2)CC1
Decide: a or b , by lowest recorded EC50. When you have decided, please share the label of that item.
a
(a: 19 µM, b: 8050 µM)

A = CCCCCCCCCCCCCCCNN1CCNCC1
B = CCCCCCCCCCCCNC(=O)C(N)CCCCN (configuration not stated)
C = CCCCCCCCCCCCCCCNC1CCNCC1
D = CCCCCCCCCCCCCCC(=O)N1CCC(CCC2CCNCC2)CC1
Put the items in order so that reported EC50 rises from first to last. Output the labels ranked as instructed.
D, C, A, B
(D: 6.3 µM, C: 11.2 µM, A: 19 µM, B: 43.9 µM)

A = CCCCCCCCCCCCCCC(=O)N1CCC(N)CC1
B = CCCCCCCCCCCCCCCN1CCC(NC2CCNCC2)CC1
C = COc1ccccc1CN1CCC(C2CCNCC2)CC1
D = CCCCCCCCCCCCCCC(=O)N1CCC(C2CCNCC2)CC1
Rank the 4 compounds: largest EC50 first, smallest last. Please respond with the labels ordered as the question requires.
C, A, B, D
(C: 38.8 µM, A: 25.1 µM, B: 14.4 µM, D: 9.3 µM)
